# Target Entity: T1, KDR receptor (VEGFR-2) (UniProt P35968 20-1356, limits assumed)
# T1 construct: whole, on cells; also called kinase domain receptor; VEGF receptor
# T1 sequence (P35968 20-1356 limits assumed): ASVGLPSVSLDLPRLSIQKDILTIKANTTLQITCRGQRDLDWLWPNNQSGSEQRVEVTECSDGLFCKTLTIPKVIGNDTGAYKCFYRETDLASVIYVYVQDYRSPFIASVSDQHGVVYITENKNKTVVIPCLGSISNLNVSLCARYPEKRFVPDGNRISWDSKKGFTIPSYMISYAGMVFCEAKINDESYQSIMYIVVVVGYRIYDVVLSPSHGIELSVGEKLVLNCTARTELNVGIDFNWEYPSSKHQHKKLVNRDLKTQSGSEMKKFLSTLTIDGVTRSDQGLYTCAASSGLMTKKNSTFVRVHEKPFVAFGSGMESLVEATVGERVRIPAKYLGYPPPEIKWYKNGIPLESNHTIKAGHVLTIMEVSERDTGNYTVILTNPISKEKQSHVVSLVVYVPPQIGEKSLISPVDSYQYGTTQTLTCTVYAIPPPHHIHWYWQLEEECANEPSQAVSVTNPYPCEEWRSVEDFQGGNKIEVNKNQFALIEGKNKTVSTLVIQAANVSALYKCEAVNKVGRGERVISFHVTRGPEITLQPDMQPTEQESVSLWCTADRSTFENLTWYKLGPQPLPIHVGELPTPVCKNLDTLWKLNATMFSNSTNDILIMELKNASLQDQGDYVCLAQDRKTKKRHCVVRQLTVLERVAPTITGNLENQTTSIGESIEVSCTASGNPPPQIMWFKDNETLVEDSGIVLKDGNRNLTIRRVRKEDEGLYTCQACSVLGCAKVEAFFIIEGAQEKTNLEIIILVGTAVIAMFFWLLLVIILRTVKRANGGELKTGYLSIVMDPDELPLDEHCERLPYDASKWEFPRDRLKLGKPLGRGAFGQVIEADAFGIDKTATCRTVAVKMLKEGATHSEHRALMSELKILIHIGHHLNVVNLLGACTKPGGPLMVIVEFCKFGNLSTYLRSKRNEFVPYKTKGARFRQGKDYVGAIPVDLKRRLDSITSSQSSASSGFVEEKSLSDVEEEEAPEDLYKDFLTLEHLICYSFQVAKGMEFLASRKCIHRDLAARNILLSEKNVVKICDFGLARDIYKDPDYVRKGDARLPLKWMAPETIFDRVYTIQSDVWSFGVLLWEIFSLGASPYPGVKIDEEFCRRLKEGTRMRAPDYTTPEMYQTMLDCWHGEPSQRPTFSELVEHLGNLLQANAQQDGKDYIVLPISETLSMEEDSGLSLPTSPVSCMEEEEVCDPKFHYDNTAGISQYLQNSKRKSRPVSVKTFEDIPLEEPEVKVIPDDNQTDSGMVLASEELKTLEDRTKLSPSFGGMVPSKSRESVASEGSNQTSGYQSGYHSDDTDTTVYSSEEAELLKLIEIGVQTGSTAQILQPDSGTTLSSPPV
# Method Description: displacement of 125I-VEGF from CHOm VEGFR2 cells
Square brackets hold non-standard residues; d marks the D form.
Below is a list of entries, each paired with its recorded IC50 value.

{"columns": ["Binder", "IC50, µM"],
 "data": [
  ["GQIMRIKPHQGQHIGE (cyclic (cyclo, ends of the linear peptide coupled), Cyclopeptide) [P12]", 300],
  ["GRIKPHQGH (cyclic (cyclo, ends of the linear peptide coupled), Cyclopeptide) [P8]", 200],
  ["GRIKPH (cyclic (cyclo, ends of the linear peptide coupled), Cyclopeptide; also called cyclo(Gly-Arg-Ile-Lys-Pro-His)) [P24]", 8],
  ["QIMRIKPHQGQHIGE (cyclic (cyclo, cyclised on the solid phase, method B), Cyclopeptide) [P19]", 5],
  ["cyclo([dF]PIMRIKPHQGQHI) (SMILES CC[C@H](C)[C@@H]1NC(=O)[C@H](CCCNC(=N)N)NC(=O)[C@H](CCSC)NC(=O)[C@H]([C@@H](C)CC)NC(=O)[C@@H]2CCCN2C(=O)[C@@H](Cc2ccccc2)NC(=O)[C@H]([C@@H](C)CC)NC(=O)[C@H](Cc2c[nH]cn2)NC(=O)[C@H](CCC(N)=O)NC(=O)CNC(=O)[C@H](CCC(N)=O)NC(=O)[C@H](Cc2c[nH]cn2)NC(=O)[C@@H]2CCCN2C(=O)[C@H](CCCCN)NC1=O, Cyclopeptide) [P21]", 200]
]}

The origin of these recorded values is patent USRE44022.
